Biological target: human B1R (bradykinin receptor 1) (Homo sapiens, UniProt P46663)
Construct: expressed in transfected cells; host or cells: CHO K1 cells
Sequence (P46663 1-353): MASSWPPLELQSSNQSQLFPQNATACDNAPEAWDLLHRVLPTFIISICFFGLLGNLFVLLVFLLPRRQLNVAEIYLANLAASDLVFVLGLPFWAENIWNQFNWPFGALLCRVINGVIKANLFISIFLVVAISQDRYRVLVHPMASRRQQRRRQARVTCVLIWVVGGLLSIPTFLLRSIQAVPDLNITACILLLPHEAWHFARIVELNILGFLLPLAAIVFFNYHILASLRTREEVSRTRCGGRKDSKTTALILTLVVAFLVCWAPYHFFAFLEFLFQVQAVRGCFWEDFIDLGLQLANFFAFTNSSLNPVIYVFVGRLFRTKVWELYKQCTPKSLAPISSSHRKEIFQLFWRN
Test: FLIPR Ca2+ assay (Fluo-4) on CHO K1 cells stably transfected with the human B1R gene (hB1R cells): % inhibition at 10 μM / IC50, agonist Lys-Des-Arg9-bradykinin
Format: cell-based
Conditions: CHO-K1, human B1R
Where a name gives a salt, the structure may show the parent alone.
Assignment: determine reported inhibition at 10 µM for the given compounds.
Number first, unit second: that is the form wanted.

Each of the following entries comes with a recorded value; kindly state inhibition at 10 µM for each.
1. Cc1nc[nH]c1CN1CCC2(CC1)CCN(C(=O)c1ccc3c(c1)C(NC(=O)c1ccccc1Cl)CC3)C2 (stereo not shown)
2. O=C(N[C@@H]1CCc2cc(F)c(C(=O)N3CCC4(CCN(c5ccncc5)CC4)C3)cc21)c1ccccc1Cl [Example H-64, hydrochloride]
3. O=C(c1ccc2c(c1)CC[C@H]2NS(=O)(=O)c1ccccc1Cl)N1CCC2(CCN(c3ccncc3)CC2)C1

["-2%", "100%", "100%"]

I have this compound here, O=C(c1ccc2c(c1)C(N(C(=O)c1ccccc1Cl)C1CC1)CC2)N1CCC2(CCN(Cc3ccncc3)CC2)CC1 (stereo not shown) , and I need its recorded inhibition at 10 µM.
68%
